Data provenance: the supplement of paper PMC10065799

target: Fyn (UniProt P06241); assay: phosphorylation enrichment, bacterial display (enrichment ratio); higher = better substrate or ligand; peptides without Tyr show the background;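 note: 11-residue human phosphosite peptides and single-mutation variants displayed on the E. coli surface, counted by deep sequencing, each peptide's frequency after selection divided by its frequency in the unselected input library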;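 note: frequency after pTyr selection over input frequency; kinase dosed for 20-30% of maximal phosphorylation in three min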
Sequence (P06241 whole entry, looked up): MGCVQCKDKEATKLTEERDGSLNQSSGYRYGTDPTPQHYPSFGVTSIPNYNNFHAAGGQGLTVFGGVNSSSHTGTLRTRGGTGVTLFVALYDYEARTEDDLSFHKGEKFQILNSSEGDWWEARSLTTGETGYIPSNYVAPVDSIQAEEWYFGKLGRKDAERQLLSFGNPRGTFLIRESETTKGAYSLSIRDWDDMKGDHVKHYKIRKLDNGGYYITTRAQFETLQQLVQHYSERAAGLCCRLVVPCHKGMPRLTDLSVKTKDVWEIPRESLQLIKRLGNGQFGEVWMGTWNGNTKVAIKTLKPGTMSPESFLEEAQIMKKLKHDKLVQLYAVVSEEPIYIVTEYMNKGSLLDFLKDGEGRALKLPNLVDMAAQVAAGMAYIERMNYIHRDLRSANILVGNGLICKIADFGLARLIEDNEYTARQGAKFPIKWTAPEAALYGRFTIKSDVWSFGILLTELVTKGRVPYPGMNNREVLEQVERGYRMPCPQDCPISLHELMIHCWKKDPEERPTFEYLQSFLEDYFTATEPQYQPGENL
Can you tell me phosphorylation enrichment for the items I'm about to list?

[
  {
    "sequence-entry": "FPKARYRWLVL [APTX_Y214_H215R_YF]",
    "phosphorylation enrichment": 0.386
  }
]

Please look at the items below and tell me phosphorylation enrichment for each one, in order.
1. FEKFLYFLPAS [DYNC2H1_Y346_H341Y_YF]
2. RSFPSYFTSHV [NEFL_Y442_YF]
3. NTGLDYIKFTW [HRH1_Y386]
4. MKNQKYGRIIM [HSD17B4_Y143_K140N]

0.733
0.65
0.39
0.424

Kindly give each listed record's phosphorylation enrichment.
1. LTFHMYADPNI [SOS1_Y618_F623I_YF]
2. IDSTPYGQWFE [RPS8_Y109_R110G_YF]
3. KPMDTYFDSTR [DYNC2H1_Y2230_YF]
4. PMFHSYVSLPF [PLXNA2_Y293_K289M]

0.747
3.54
0.452
1.08

Please give phosphorylation enrichment for each item listed below.
1. QEALEYFMKQI [PIK3CA_Y1038_M1043I]
2. PSSRDYKHNIK [PIGN_Y227]

[0.545, 0.456]

Okay, here is my list. What is phosphorylation enrichment for each of these?
1. FDAHIYEGRVI [PRKCD_Y64]
2. AAAAMYTFLPD [MYORG_Y36]

1: 1.68; 2: 1.61
